- Test system: HepG2
- experiment: Antitumor activity human HepG2 cells assessed as inhibition of cell proliferation incubated for 72 hrs by MTT assay
- Format: functional, cell-based
- condition_set: HepG2, 72 h
Known IC50 of a selection of compounds

C#CCSc1nc(N2CCSCC2)c2ccncc2n1 | > 80 µM
C#CCSc1nc(Nc2ccc(Br)cc2)c2ccncc2n1 | 56.2 µM
C#CCSc1nc(Nc2ccccc2Cl)c2ccncc2n1 | 17.2 µM

Given the entry C#CCSc1nc(Nc2cccc(O)c2)c2ccncc2n1 , report its measured IC50. 29.5 µM

* * *

- System: MGC-803
- experiment: Antitumor activity human MGC-803 cells assessed as inhibition of cell proliferation incubated for 72 hrs by MTT assay
- Format: functional, cell-based
- condition_set: MGC-803, 72 h
Known pIC50 of a selection of molecules
# pIC50 is unitless: minus log10 of the molar concentration; print number only

CCCSc1nc(Nc2cccc(OC)c2)c2ccncc2n1 | 5.71

Given the entry C#CCSc1nc(Nc2ccccc2O)c2ccncc2n1 , report its measured pIC50. 4.68

And then O=c1[nH]cc(F)c(=O)[nH]1 , what is it? 5.14

And then COc1cccc(Nc2nc(SCC3CC3)nc3cnccc23)c1 , what is it? 5.87

And then C#CCSc1nc(Nc2ccc(F)cc2)c2ccncc2n1 , what is it? 4.80

And then C#CCSc1nc(Nc2cccc(O)c2)c2ccncc2n1 , what is it? 4.81

* * *

- Tested on: MGC-803
- experiment: Antitumor activity human MGC-803 cells assessed as inhibition of cell proliferation incubated for 72 hrs by MTT assay
- Type: functional, cell-based
- condition_set: MGC-803, 72 h
endpoint: pIC50
# pIC50 is unitless: minus log10 of the molar concentration; print number only

Example results:
C#CCSc1nc(N2CCN(CC)CC2)c2ccncc2n1 | 4.15
C/C=C/Sc1nc(Nc2cccc(OC)c2)c2ccncc2n1 | 5.99
C#CCSc1nc(Nc2ccc(Cl)cc2)c2ccncc2n1 | 4.78

Given the entry C#CCSc1nc(Nc2ccccc2OC)c2ccncc2n1 , report its measured pIC50. 5.46

And then C#CCSc1nc(Nc2cccc(Cl)c2)c2ccncc2n1 , what is it? 5.66

And then C#CCSc1nc(Nc2ccccc2Cl)c2ccncc2n1 , what is it? 4.56

And then C#CCSc1nc(Nc2cc(OC)c(OC)c(OC)c2)c2ccncc2n1 , what is it? 5.25

And then C#CCSc1nc(Nc2ccccc2)c2ccncc2n1 , what is it? 4.79

And then C#CCSc1nc(Nc2ccc(C)cc2)c2ccncc2n1 , what is it? 5.09

* * *

- Test system: HepG2
- experiment: Antitumor activity human HepG2 cells assessed as inhibition of cell proliferation incubated for 72 hrs by MTT assay
- Format: functional, cell-based
- condition_set: HepG2, 72 h
pIC50: −log10 of the molar value.
Output Met for pIC50 not less than 5; output Not met otherwise.

Solved cases (3 shown):
C#CCSc1nc(Nc2ccc(C)cc2)c2ccncc2n1 | Met
C/C=C/Sc1nc(Nc2cccc(OC)c2)c2ccncc2n1 | Not met
C#CCSc1nc(Nc2ccccc2OC)c2ccncc2n1 | Met

Evaluate C#CCSc1nc(NCCC#N)c2ccncc2n1 : pIC50 at minimum 5? Not met

And then C#CCSc1nc(N2CCN(C(=O)OC(C)(C)C)CC2)c2ccncc2n1 , what is it? Not met

And then C#CCSc1nc(Nc2ccccc2)c2ccncc2n1 , what is it? Not met

And then C#CCSc1nc(N2CCN(CC)CC2)c2ccncc2n1 , what is it? Not met

And then O=c1[nH]cc(F)c(=O)[nH]1 , what is it? Not met

And then C#CCSc1nc(Nc2ccccc2O)c2ccncc2n1 , what is it? Not met
